The following compounds are shown together with reported kinase still bound, per cent of control values.
biological target: WEE2 (human); assay: KINOMEscan competition binding; details: compound 10.0 µM
observable: kinase still bound, per cent of control

| compound | observable | val |
| --- | --- | --- |
| CCN1CCN(Cc2ccc(NC(=O)c3ccc(C)c(/C=C/c4cnc5[nH]ccc5c4OC)c3)cc2C(F)(F)F)CC1 | kinase still bound, per cent of control | 4.8% |
| N#C/C(=C1/Nc2ccccc2S1)c1ccnc(NCCc2cccnc2)n1 | kinase still bound, per cent of control | 100% |
| CC1=C(C(=O)Nc2cc3cn[nH]c3cc2F)C(c2ccc(C(F)(F)F)cc2)CC(=O)N1 (configuration not stated) | kinase still bound, per cent of control | 66% |
| COc1cc2c(Nc3ccc(NC(=O)c4ccccc4)cc3)ncnc2cc1OCCCN1CCOCC1 | kinase still bound, per cent of control | 100% |
| CCN(CCO)CCCOc1ccc2c(Nc3cc(CC(=O)Nc4cccc(F)c4)[nH]n3)ncnc2c1 | kinase still bound, per cent of control | 100% |
| COc1cc(N2CCC(C(N)=O)CC2)ccc1Nc1nc(N)c(Cl)c(Nc2ccccc2S(=O)(=O)C(C)C)n1 | kinase still bound, per cent of control | 100% |
| N#Cc1cc(-c2ccnc(Nc3ccc(-n4cnc(-c5cccnc5)n4)cc3)n2)cc(N2CCOCC2)c1 | kinase still bound, per cent of control | 100% |
| CCOc1cc(N2CCC(O)CC2)ccc1Nc1ncc2c(n1)N(C)c1ccccc1C(=O)N2C | kinase still bound, per cent of control | 100% |
| CCc1nc(-c2cccc(C)c2)c(-c2ccnc(NC(=O)c3ccccc3)c2)s1 | kinase still bound, per cent of control | 100% |
| CNC(=O)Nc1ccc(-c2nc(N3CC4CCC(C3)O4)c3cnn(C4CCC5(CC4)OCCO5)c3n2)cc1 | kinase still bound, per cent of control | 100% |
| O=c1[nH]c2ccccc2n1C1CCN(Cc2ccc(-c3nc4cc5[nH]cnc5cc4nc3-c3ccccc3)cc2)CC1 | kinase still bound, per cent of control | 96% |
| Cc1cn(-c2cc(C(=O)Nc3ccc(C)c(NC(=O)c4ccno4)c3)cc(C(F)(F)F)c2)cn1 | kinase still bound, per cent of control | 100% |
